Sourced from the RNAGym collection of RNA variant scans (doi:10.1093/nar/gkz1192)

B1: CPEB3 Ribozyme (parent)
chain: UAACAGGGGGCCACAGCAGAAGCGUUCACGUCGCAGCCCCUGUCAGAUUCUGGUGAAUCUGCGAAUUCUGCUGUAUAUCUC

Variants of: B1
Measurement description: self-cleavage, relative activity (ratio to wild type); higher = more cleavage; in vitro, sequencing
For each record, write down the corresponding self-cleavage.

// sample A20G G30A , its self-cleavage was 0.3

// sample C27U A65C , its self-cleavage was 0.1

// sample A18G G63A , its self-cleavage was 0.51

// sample G36A U80C , its self-cleavage was 0.34

// sample A5C G10A , its self-cleavage was 0.09

// sample G10A U26C , its self-cleavage was 0.22

// sample G8A A13G , its self-cleavage was 0.44

// sample C12U A13U , its self-cleavage was 1.15

// sample A5C U58A , its self-cleavage was 0.49

// sample C11U A18G , its self-cleavage was 0.31

// sample U49C C50U , its self-cleavage was 0.87

// sample A5U G16A , its self-cleavage was 1.05

// sample A20G U41G , its self-cleavage was 0.35

// sample C37A C39A , its self-cleavage was 0.29

// sample U41A A65G , its self-cleavage was 0.25
